# Assay Context: dog
Reported Endpoint: AUC (µmol·min/L)
Quick note: give the figure in µmol·min/L, leave out the unit.

- Molecule: "CCCCCC(CCC1C(O)CC2Cc3c(cccc3OCC(=O)O)CC21)OC(=O)OCC (centres unmarked) [XVI]"
  AUC, µmol·min/L: 56.90
- Molecule: "CCCCCC(CCC1C(O)CC2Cc3c(cccc3OCC(=O)O)CC21)OC(=O)N1CCC(O)CC1 (centres unmarked) [LVIII]"
  AUC, µmol·min/L: 0.00
- Molecule: "CCCCCC(CCC1C(O)CC2Cc3c(cccc3OCC(=O)O)CC21)OC(=O)C1CCCN1 (centres unmarked) [XXXVI]"
  AUC, µmol·min/L: 19.90
- Molecule: "CCCCCC(CCC1C(O)CC2Cc3c(cccc3OCC(=O)O)CC21)OCC(=O)O (centres unmarked) [LVII]"
  AUC, µmol·min/L: 0.00

Next, consider the following molecule.
Exam item: Could you share which AUC value was measured for CCCCCC(CCC1C(O)CC2Cc3c(cccc3OCC(=O)O)CC21)OCCN1CCOCC1 (centres unmarked) [L] ?
Marked response: 0.23
